Can you tell me SPOT peptide array binding signal intensity for the items I'm about to list?
target: AgLsb4; assay: SPOT peptide array binding signal intensity (averaged, normalized) (arbitrary units (background-subtracted, floor 0; scale differs between SH3 domains)); higher = stronger binding of the SH3 domain to the peptide

Q. Quick one: SPOT peptide array binding signal intensity for `TYNRTAFQIPGDQSI` ?
A. ≤ 0

Q. Quick one: SPOT peptide array binding signal intensity for `IAPIPMPKPNPTHIS` ?
A. ≤ 0

Q. Quick one: SPOT peptide array binding signal intensity for `KRKRRLPVSEDTNTK` ?
A. 46.5

Q. Quick one: SPOT peptide array binding signal intensity for `DFTLPPPPPPPGLDE` ?
A. ≤ 0
